- Tested on: SF-295 CNS
- method notes: NCI-60 one-dose screen, 48 h (100 = growth as untreated, 0 = no growth, -100 = all killed)
- conditions used: 10 µM unless noted
Compounds without any hit were thinned out: in the full panel of roughly 83,000, 20% have a hit.
Overview of recorded growth for various compounds
// units = %; emit number, no label

{"compound": "N#C/C(=C\\c1cccc2c1OCO2)C(=O)Nc1sc2c(c1C#N)CCCC2", "unit abbreviation": "%", "growth": 97.2}
{"compound": "CC(=O)/C(N=Nc1ccc2oc(=O)ccc2c1)=C(\\C)O", "unit abbreviation": "%", "growth": 22.5}
{"compound": "CCCCCCOC(=O)c1cc(-c2ccc(F)cc2)nc2ccccc12", "unit abbreviation": "%", "growth": 98}
{"compound": "CN1CCN(Cc2ccc(NC(=O)c3cncc(C#Cc4cnc5ccc(OC6CCOCC6)nn45)c3)cc2C(F)(F)F)CC1", "unit abbreviation": "%", "growth": -97}
{"compound": "COc1cc(/C=N\\NC(=O)c2ccc3nc(-c4ccc(Br)cc4)[nH]c3c2)cc(OC)c1OC", "unit abbreviation": "%", "growth": 32.5}
{"compound": "COC(=O)CNC(=O)c1cccc(-c2cc(=O)c3c(OC)c(OC)c(OC)cc3o2)c1", "unit abbreviation": "%", "growth": 101}
{"compound": "O=C1CSC(c2cn(-c3ccccc3)nc2-c2ccc(Cl)cc2)N1c1ccccc1 (stereo not drawn)", "unit abbreviation": "%", "growth": 99.5}
{"compound": "O=C1[C@@H]2Cc3c([nH]c4ccccc34)[C@H](c3ccc(Br)cc3)N2C(=O)CN1C1CCN(Cc2c(Cl)cccc2Cl)CC1", "unit abbreviation": "%", "growth": 100}

Item O=C(CSc1nc2ccccc2c(=O)n1-c1ccccc1)N/N=C/c1ccc(Oc2ccc(Cl)cc2)cc1 has what recorded growth?
83.8

How about this compound: CC1(C)CC[C@]2(C(=O)NCCCCCCN(CCCN)CCCN)CC[C@]3(C)C(=CC[C@@H]4[C@@]5(C)CC[C@H](O)C(C)(C)[C@@H]5CC[C@]43C)[C@@H]2C1
105

How about this compound: N#Cc1c(-c2ccc(F)cc2)cc(-c2c[nH]c3ccccc23)nc1-c1c[nH]c2ccccc12
103

How about this compound: Nc1nc(=O)n([C@H]2C[C@H](O)[C@@H](CO)O2)cc1C=O
103

---

- Tested on: SF-295 CNS
- method notes: NCI-60 one-dose screen, 48 h
- conditions used: 10 µM unless noted
This is part of a sample that, as a whole, favours compounds with a hit. Of some 83,000 tested, about 20% had one in any assay. Calls of active or inactive are those of the source. How the source made its calls: active means growth percent below 10; inactive means the rest.
Bench note: report the call from true (1) (active), false (0) (inactive)

Illustrative cases are given below, each with its answer.
{"molecule": "Cc1cc(NS(=O)(=O)c2ccc(NC(=O)CSc3nc4ccccc4c(=O)n3-c3ccccc3)cc2)no1", "class": "false (0)"}
{"molecule": "C#C[C@]1(O)CC[C@H]2[C@@H]3CC=C4c5sc(Nc6cccc(F)c6)nc5CC[C@]4(C)[C@H]3CC[C@@]21C", "class": "true (1)"}
{"molecule": "Cc1ccc2c(n1)C(=O)C(Cl)=C(Nc1ccccc1C(=O)OC(C)(C)C)C2=O", "class": "false (0)"}
{"molecule": "Cc1ccc(S(=O)(=O)NCCCNc2nccc(-c3[nH]c(-c4ccccc4)nc3-c3ccc(F)c(O)c3)n2)cc1", "class": "false (0)"}

// outcome(item) with item = CCOP(=O)(OCC)OC[C@]12CCC(C)(C)CC1C1=CC[C@@H]3[C@@]4(C)CCCNC(C)(C)[C@@H]4CC[C@@]3(C)[C@]1(C)CC2 (stereo partly drawn)
false (0)

How about this molecule: Cc1ccc(C(=O)CSc2nc3ccccc3c(=O)n2C)cc1
false (0)

How about this molecule: COc1ccc(/C=N/N=C(/c2ccccc2)c2ccc3nc(-c4ccc(Cl)cc4)[nH]c3c2)cc1
false (0)

How about this molecule: COc1ccc(C(C)=C(c2ccc(OCCN(C)C)cc2)c2ccc(OCCN(C)C)cc2)cc1
true (1)

How about this molecule: O=C(CSc1nc2ccccc2c(=O)n1-c1ccc(Cl)cc1)N/N=C/c1ccc(Oc2ccc(Cl)cc2)cc1
false (0)

How about this molecule: N#Cc1c(-c2ccc(Br)cc2)cc(-c2c[nH]c3ccccc23)nc1N
false (0)

How about this molecule: CN1CCN(c2ccc(C(=O)/C=C/c3cc(F)cc(C(F)(F)F)c3)cc2)CC1
false (0)

How about this molecule: COc1ccc2[nH]cc(/C=N/Nc3ccnc4cc(Cl)ccc34)c2c1
true (1)

How about this molecule: O=C(CCCCCCNC(=O)C(O)(O)C(F)(F)F)Nc1ccc(-c2ccccc2)cc1
true (1)

How about this molecule: Brc1cc(-c2cc(-c3ccc4c(c3)OC=CO4)[nH]n2)cs1
false (0)

---

- Test system: SNB-75 CNS
- method notes: NCI-60 one-dose screen, 48 h
- conditions used: 10 µM unless noted
This is part of a sample that, as a whole, favours compounds with a hit. Of some 83,000 tested, about 20% had one in any assay. The source made the active and inactive calls. Rule for the calls: active = growth percent below 10; inactive = the rest.
Bench note: report the call from active, inactive

Illustrative cases are given below, each with its answer.
{"compound": "C#Cc1nc(/C=C/C(=O)NO)cs1", "class": "active"}
{"compound": "CCCc1cc2cc(-n3nc(CC)c4c3CC(C)(C)CC4=O)cc(NC3CCC(O)CC3)c2c(=O)[nH]1 (stereo not given)", "class": "active"}
{"compound": "COc1cc(OC)cc(-c2cc(-c3c[nH]c4ccccc34)nc(-c3c[nH]c4ccccc34)c2C#N)c1", "class": "inactive"}
{"compound": "Cc1cc(=O)[nH]c(O)c1C#N", "class": "inactive"}
{"compound": "CC1(C)CC[C@]23CC[C@]4(C)[C@H](CC[C@@H]5[C@@]6(C)CC[C@H](NCO)C(C)(C)[C@@H]6CC[C@]54C)[C@H]2[C@H]1OC3", "class": "inactive"}

// outcome(item) with item = CCN1CCN(c2ccc(NC(=O)Nc3ccc4c(ccn4-c4ccnc(C(=O)NC)c4)c3)cc2C(F)(F)F)CC1
inactive

How about this compound: O=C1Nc2cc(Cl)ccc2/C1=C\c1ccc(OCc2ccccc2)cc1
inactive

How about this compound: COc1ccc(OC)c(CCn2cncc2-c2c[nH]c3ccc(Cl)cc23)c1
inactive

How about this compound: COc1ccc(-c2nc(C#N)c(N3CCC(S(=O)(=O)N4CCOCC4)CC3)o2)cc1
inactive

How about this compound: C#CCOc1ccccc1C(OC(=O)c1ccccc1)C(=O)NC(C)(C)C(C)(C)C (stereo not given)
inactive

How about this compound: COC(=O)N1CCN(CCNCc2ccc(NC(=O)c3ccc(C)c(C#Cc4cnc5cccnn45)c3)cc2C(F)(F)F)CC1
inactive

How about this compound: CC(C)(C)c1cc(NC(=O)Nc2ccc(-c3cn4c5c(sc4n3)CCc3cn(CCCN4CCCCC4)cc3-5)cc2)no1
inactive

How about this compound: COc1ccc2sc(NC(=O)CCCCCCNC(=O)C(O)(O)C(F)(F)F)nc2c1
inactive

---

- System: SF-268 CNS
- method notes: NCI-60 one-dose screen, 48 h (100 = growth as untreated, 0 = no growth, -100 = all killed)
- conditions used: 10 µM unless noted
The panel holds about 83,000 compounds, 20% with a hit somewhere; the sample as a whole holds those more often.
Overview of recorded growth for various compounds
// units = %; emit number, no label

Here's what some known entries look like.
{"compound": "Cc1ccc(C(=O)CSc2nc3ccccc3c(=O)n2C)cc1", "target system": "SF-268 CNS", "growth [%]": 94.5}
{"compound": "CCCCCN1C(=O)/C(=c2\\sc3n(c2=O)C2C(NN=3)N(CC)C(=O)N2CC)c2cccc(C)c21 (stereo unspecified)", "target system": "SF-268 CNS", "growth [%]": 56.9}
{"compound": "Cn1cc(C2=C(c3coc4cc(Br)ccc34)C(=O)NC2=O)c2ccccc21", "target system": "SF-268 CNS", "growth [%]": 83.5}
{"compound": "C[C@H]1OCC2(CCN(c3cnc(C(=O)Nc4cc(F)cc5cccnc45)cn3)CC2)[C@H]1N", "target system": "SF-268 CNS", "growth [%]": 72.2}
{"compound": "Clc1cccc(/C=N/Nc2nc(N/N=C/c3cccc(Cl)c3)nc(N3CCCCC3)n2)c1", "target system": "SF-268 CNS", "growth [%]": 92}
{"compound": "CCCN1C=C/C(=C\\C(=O)n2ccc3ccccc32)c2ccccc21", "target system": "SF-268 CNS", "growth [%]": 96.4}
{"compound": "N#C/C(=C\\c1cccc2c1OCO2)C(=O)Nc1sc2c(c1C#N)CCCC2", "target system": "SF-268 CNS", "growth [%]": 103}
{"compound": "Cn1c(SCC(=O)c2ccco2)nc2ccccc2c1=O", "target system": "SF-268 CNS", "growth [%]": 102}
{"compound": "Cn1cc(-c2nnc(N)nc2-c2c[nH]c3ccc(Br)cc23)c2cc(Br)ccc21", "target system": "SF-268 CNS", "growth [%]": 106}
{"compound": "Cc1nc(/N=C(N)/N=C(\\N)c2cccc(Br)c2)sc1C", "target system": "SF-268 CNS", "growth [%]": 80}

Item CCc1cccc2c3c(sc12)C(c1ccc(F)cc1)C(C#N)=C(/N=C/c1ccc(Cl)cc1)O3 (stereo unspecified) has what recorded growth?
43.5

How about this compound: CNC(=O)c1cc(Oc2ccc3c(c2)sc2nc(-c4ccc(N(C)C)cc4)cn23)ccn1
45.7

How about this compound: O=C(O)CC1CCN(c2ccc3nnc(Cl)n3n2)CC1
100

How about this compound: CC(=O)Nc1cc(N2CCOCC2)c2nc(NC(=O)c3[nH]c(C)c(Cl)c3Cl)sc2c1
93.9

How about this compound: CC1=C(C)C(=O)C(Nc2ccc3c(c2)OCO3)=C(Br)C1=O
96.7

How about this compound: CC(C)(O)c1cncc(-c2ccc3ncc(C#N)c(N4CCc5cc(F)c(Cl)cc54)c3c2)c1
21.5

How about this compound: CCCCc1nc2c(N)nc3ccccc3c2n1Cc1cccc(CN)c1
48.7

How about this compound: COc1ccc(-c2cc(-c3ccc(N(C)C)cc3)n3c(n2)nc2ccccc23)cc1
76.9

How about this compound: O=C1Nc2ccccc2/C1=N\c1nnc(-c2ccccc2)o1
98.1

How about this compound: CCOc1cccc(/C(N)=N/C(N)=N/c2nc3ccccc3s2)c1
86.5

How about this compound: CCN(CC)c1ccc(/C=N/NC(=O)c2ccc(S(N)(=O)=O)cc2)c(O)c1
20.5
